Recorded values, source patent US8501794B2.

- target-of-assay: human CB2 receptors (Homo sapiens, UniProt P34972)
- Construct: expressed in transfected cells; host or cells: HEK293
- Sequence (P34972 whole entry): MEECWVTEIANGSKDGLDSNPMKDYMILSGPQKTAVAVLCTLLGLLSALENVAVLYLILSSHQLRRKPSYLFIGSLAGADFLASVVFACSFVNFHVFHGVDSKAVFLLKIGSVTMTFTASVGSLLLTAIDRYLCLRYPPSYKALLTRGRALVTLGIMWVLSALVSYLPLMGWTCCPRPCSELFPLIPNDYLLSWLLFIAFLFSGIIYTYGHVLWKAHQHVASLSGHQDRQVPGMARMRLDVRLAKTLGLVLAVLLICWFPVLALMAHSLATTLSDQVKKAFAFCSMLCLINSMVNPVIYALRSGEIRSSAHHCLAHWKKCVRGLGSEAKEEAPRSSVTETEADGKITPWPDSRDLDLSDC
- assay: human CB2 radioligand binding assay ([3H]CP-55,940 competition)
quantity-name: Ki

{"columns": ["structure-notation", "quantity-name", "result"],
 "data": [
  ["CCCCc1cn(C(C)(C)C)s/c1=N\\C(=O)[C@@H]1CC[C@](C)(NC(=O)NC)C1(C)C", "Ki", "41 nM"],
  ["CCCCc1cn(C(C)(C)C)s/c1=N\\C(=O)c1cc(C(F)(F)F)ccc1OC[C@@H]1COC(=O)N1", "Ki", "16 nM"],
  ["CCCCc1cn(C(C)(C)C)s/c1=N\\C(=O)C12CC3CC(C1)CC(C(=O)OC)(C3)C2", "Ki", "0.32 nM"],
  ["COc1ccc(C#N)cc1C(=O)/N=c1\\sn(C(C)(C)C)cc1CC(C)C", "Ki", "58 nM"]
]}
